- SYSTEM NAME: Prostaglandin D2 receptor 2 (Homo sapiens)
- Sequence (whole entry): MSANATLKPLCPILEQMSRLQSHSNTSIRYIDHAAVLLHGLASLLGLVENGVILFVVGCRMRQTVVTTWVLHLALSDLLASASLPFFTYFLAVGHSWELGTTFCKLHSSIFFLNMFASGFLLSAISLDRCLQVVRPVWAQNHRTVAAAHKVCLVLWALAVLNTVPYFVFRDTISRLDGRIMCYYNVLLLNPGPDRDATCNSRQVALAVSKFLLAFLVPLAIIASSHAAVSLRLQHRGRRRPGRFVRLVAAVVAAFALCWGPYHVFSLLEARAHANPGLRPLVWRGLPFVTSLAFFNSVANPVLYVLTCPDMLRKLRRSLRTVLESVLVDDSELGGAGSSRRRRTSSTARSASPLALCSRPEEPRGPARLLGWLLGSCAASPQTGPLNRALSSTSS
- MEASUREMENT PROTOCOL: Antagonist activity at human CRTH2 receptor expressed in […] cells assessed as inhibition of beta arrestin translocation by bioluminescence resonance energy transfer assay relative to control
- Format: functional, cell-based
QUANTITY KIND: Efficacy (%)
Numbers only, in %.

# count of solved cases: 4
O=C(O)Cc1sc(C(c2ccc(F)cc2)c2ccc(F)cc2)nc1-c1ccoc1 : 80
O=C(O)Cc1sc(Nc2cccc3ccccc23)nc1-c1ccc(Cl)cc1 : 50
O=C(O)Cc1sc(CSc2ccccc2)nc1-c1ccc(Cl)cc1 : 50
O=C(O)Cc1sc(C(c2ccc(F)cc2)c2ccc(F)cc2)nc1-c1ccnc(N2CCCC2)c1 : 80

Next compound, please.
Query string: Lookup: Efficacy / Prostaglandin D2 receptor 2 (Homo sapiens) / O=C(O)Cc1sc(C(c2ccc(F)cc2)c2ccc(F)cc2)nc1-c1ccn[nH]1
Result string: 30

====

- SYSTEM NAME: Prostaglandin D2 receptor 2 (Homo sapiens)
- Sequence (Q9Y5Y4 whole entry): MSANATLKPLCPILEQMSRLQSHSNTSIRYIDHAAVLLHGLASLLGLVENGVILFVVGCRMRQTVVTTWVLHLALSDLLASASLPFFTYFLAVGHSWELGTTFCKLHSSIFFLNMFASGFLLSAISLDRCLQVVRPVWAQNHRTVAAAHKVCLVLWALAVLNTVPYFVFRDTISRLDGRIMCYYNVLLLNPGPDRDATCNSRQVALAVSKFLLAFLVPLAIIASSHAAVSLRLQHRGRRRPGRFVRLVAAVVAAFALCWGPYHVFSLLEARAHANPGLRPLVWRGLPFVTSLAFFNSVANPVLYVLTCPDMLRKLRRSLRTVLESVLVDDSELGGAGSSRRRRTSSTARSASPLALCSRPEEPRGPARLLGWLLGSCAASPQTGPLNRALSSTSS
- MEASUREMENT PROTOCOL: Displacement of[3H]PGD2 from human CRTH2 receptor expressed in […] cells
- Format: cell-based
QUANTITY KIND: IC50 (nM)
Answers are plain numbers, in nM.

# count of solved cases: 4
CN(C)c1cc(-c2nc(C(c3ccc(F)cc3)c3ccc(F)cc3)sc2CC(=O)O)ccn1 : 380
Nc1cc(-c2nc(C(c3ccc(F)cc3)c3ccc(F)cc3)sc2CC(=O)O)cc(F)n1 : 220
O=C(O)Cc1sc(C(c2ccc(F)cc2)c2ccc(F)cc2)nc1-c1ccoc1 : 14
N#Cc1ccc(-c2nc(C(c3ccc(F)cc3)c3ccc(F)cc3)sc2CC(=O)O)cc1 : 150

Next compound, please.
Query string: Entry under review: Nc1cc(-c2nc(C(c3ccc(F)cc3)c3ccc(F)cc3)sc2CC(=O)O)ccn1 . Reported IC50?
Result string: 4.8
